Biological target: T1, human CD36 (on HEK 293 or SCC25 cells) (human, UniProt P16671 2-472)
T1 construct: Overexpressed transiently or stably on HEK 293 cells, or stably on SCC25 cells; also called huCD36
T1 sequence (P16671 2-472 limits assumed): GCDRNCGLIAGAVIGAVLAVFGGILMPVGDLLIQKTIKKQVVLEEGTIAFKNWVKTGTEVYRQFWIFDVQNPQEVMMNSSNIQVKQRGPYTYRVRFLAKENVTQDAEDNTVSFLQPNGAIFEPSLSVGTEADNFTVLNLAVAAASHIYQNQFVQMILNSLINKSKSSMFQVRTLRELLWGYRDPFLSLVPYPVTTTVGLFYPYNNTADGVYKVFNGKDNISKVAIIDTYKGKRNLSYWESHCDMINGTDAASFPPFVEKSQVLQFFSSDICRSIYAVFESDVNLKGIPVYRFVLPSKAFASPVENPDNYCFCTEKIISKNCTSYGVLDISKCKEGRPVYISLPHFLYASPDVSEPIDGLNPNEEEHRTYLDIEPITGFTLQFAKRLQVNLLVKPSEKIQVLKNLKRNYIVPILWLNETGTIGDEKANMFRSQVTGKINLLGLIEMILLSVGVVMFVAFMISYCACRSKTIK
Experiment: FACS, HEK 293 cells transiently overexpressing CD36;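 also: antibody binding to transfected cells detected by flow cytometry with a fluorescent anti-human secondary antibody, EC50 from a four-parameter sigmoidal fit of mean fluorescence intensity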
Measured Quantity: EC50 (nM)
Numbers only, in nM.

Look over these answered cases.
Identify EC50 associated with the binder 37G04 (antibody, human IgG1, V domains shown, Chimeric: chicken variable regions on human IgG1 LALA (L234A/L235A); also called 037G04) VH: AVTLDESGGGLQTPGGALSLVCKASGFTFSDYDMLWVRQAPGKGLEFVAGINAASTYTDYGAAVKGRATISRDNGQSTVRLQVNNLRAEDTGTYYCAKSSYGGGWSDVGSIDAWGHGTEVIVSS VL: ALTQPSSVSANPGETVKITCSGDRSYYGYGWYQQKAPGSAPVTVIYWDDKRPSDIPSRFSGSTSGSTATLTITGVQAEDEAVYFCGNMDSSYVGMFGAGTTLTVL 0.62

Identify EC50 associated with the binder 9G04 (antibody, human IgG1, V domains shown, Chimeric: mouse variable regions on human IgG1 LALA (L234A/L235A); also called 09G04; 009G04) VH: QVQLQQSGAELVRPGASVTLSCKASGYTFTDYEMHWVKQTPVHGLEWIGTVDPETGGTAFNQKFKDKASLTADKSSSTVYMELRSLTSEDSAVYYCSRGYGNYGAWFAYWGQGTLVTVSA VL: ETTVTQSPASLSVATGEKVTIRCITSTDIDDDMNWYQQKPGEPPKLLISEGNTLRPGVPSRFSSSGYGTDFVFTIENMLSEDVADYYCLQSDNLPFTFGSGTKLEIK 0.5

Identify EC50 associated with the binder 21G04 (antibody, human IgG1, V domains shown, Chimeric: mouse variable regions on human IgG1 LALA (L234A/L235A)) VH: QVQLQQSGAELVKPGASVKLSCKASGYTFTSYWMHWVKQRPGQGLEWIGEIDPSDSHTNYNQKFKGKATLTVDKSSSTAYMQLSSLTSEDSAVYYCAPIYYGLDNWGQGTTLTVSS VL: ETTVTQSQKFMSTSVGDRVSVTCKASQNVGTNVAWYQQKPGQSPKALIYSASYRYSGVPDRFTGSGSGTDFTLTISNVQSEDLAEYFCQQYNSYPFTFGSGTKLEIK 0.36

Identify EC50 associated with the binder 6G04 (antibody, human IgG1, V domains shown, Chimeric: mouse variable regions on human IgG1 LALA (L234A/L235A); also called 06G04; 006G04) VH: QVQLQQSGAELVMPGASVKMSCKASGYTFTDYWMHWVKQRPGQGLEWIGSIDTSDSYTTYSQKFKGKATLTVDESSSTAYMELARLTSEDSAIYYCVRGEDYEGTWFAYWGQGTLVTVSA VL: ETTVTQSPASLSVATGEKVTIRCITSTDIDDDMNWYQQKPGEPPKLLISEGNTLRPGVPSRFSSSGYGTDFVFTIENTLSEDVADYYCLQSDNMPLTFGAGTKLELK 0.53

Identify EC50 associated with the binder 7G04 (antibody, human IgG1, V domains shown, Chimeric: mouse variable regions on human IgG1 LALA (L234A/L235A); also called 07G04; 007G04) VH: QVQMKESGAELVRPGASVKLSCKALGYTFTDYEIQWVKQTPVHGLEWIGGIHPGSSGIVYNQKFKGKATLTADKSSSTAYMELSSLTSEDSAVYYCTRGGGYDGAWFAYWGQGSLVTVSA VL: ETTVTQSPASLSMAIGEKVTIRCITSTDIDDDMNWYQQKPGEPPKLLISEGNTLRPGVPSRFSSSGYGTDFVFTIENMLSEDVADYYCLQSDNLPFTFGSGTKLEIK 0.48

Each binder below has a recorded value; state its EC50.
1. 26G04 (antibody, human IgG1, V domains shown, Chimeric: mouse variable regions on human IgG1 LALA (L234A/L235A)) VH: QVQMKESGAELMKPGASVKISCKATGYIFSNYWIEWLKERPGHGLEWIGDFLPGSSSANYNEKFKGKATFTADTSSNTAYMQLSSLTSEDSAVYYCVPFTVEVTDAMDYWGQGTSVTVSS VL: DIVLTQSHKFMSTSVGDRVSITCKASQDVSTAVAWYQQKPGQSPKLLIYSASYRYTGVPDRFTGSGSGTDFTFTISSVQAEDLAVYYCQQHYSTPRTFGGGTKLEIK
2. 14G04 (antibody, human IgG1, V domains shown, Chimeric: mouse variable regions on human IgG1 LALA (L234A/L235A); also called 014G04) VH: QVQLQQSGAELVRSGASVRLSCTASGFNIKDYYIHWVKQRPEQGLEWIGWIDPENGDTEYAPRFQDKATMTADTSSNTAYLQLSSLTSEDTAVYYCNGWLLSGNGMDYWGQGTSVTVSS VL: DIVMTQSHKFMSTSVGDRVSITCKASQDVGTAVAWYQQKPGQSPKLLIYWASTRHTGVPDRFTGSGSGTDFTLTISNVQSEDLADYFCQQYSSYPTFGGGTKLEIK

1: 0.72; 2: 1.47

Each binder below has a recorded value; state its EC50.
1. 17G04 (antibody, human IgG1, V domains shown, Chimeric: mouse variable regions on human IgG1 LALA (L234A/L235A)) VH: EVQLQQSGPELVKPGASVKISCKTSGYTFTEYTMHWVKQSHGKSLEWIGGIYPYNGGTAYNQKFKNKATLTVDISSNTAYMALRSLASDDSAVYYCASDYFYGDGYPWFTYWGQGTLVTVSA VL: ETTVTQSPASLSVATGEKVTIRCITSTDIDDDMNWYQQRPGEPPNLLISEGNTLRPGVPSRFSSSGYGTDFVFTIENTLSEDVADYYCLQSDNLPFTFGSGTRLEIK
2. 13G04 (antibody, human IgG1, V domains shown, Chimeric: mouse variable regions on human IgG1 LALA (L234A/L235A); also called 013G04) VH: QVQLQQSGAELVRPGASVKLSCKASGYTFTSYWMNWVKQRPGQGLEWIGMIDPSDNETHYNQMFKDKATLTVDKSSSTAYMQLSSLTSEDSAVYYCARSDYGNGYSFYLDVWGAGTTVTVSS VL: DIVLTQSPASLAVSLGQRATISCRASESVDSYGNSFMHWYQQKPGQPPKLLIYRASNLESGIPARFSGSGSRTDFTLTINPVEADDVATYYCQQSNEDPWTFGGGTKLEIK
3. 23G04 (antibody, human IgG1, V domains shown, Chimeric: mouse variable regions on human IgG1 LALA (L234A/L235A); also called 023G04) VH: QVQLQQPGTELVKPGASVKLSCKASGYTFTSYWMHWVKQRPGQGLEWIGEIDPSDSHTNYNQKFKGKATLTVDKSSSTAYMQLSSLTSEDSAVYYCAPIYYGLDNWGQGTTLTVSS VL: DIVLTQSQKFMSTSVGDRVSVTCKASQNVGTNVAWYQQKPGQSPKALIYSASYRYSGVPDRFTGSGSGTDFTLTISNVQSEDLAEYFCQQYNSYPYTFGGGTKLEIK

1: 1.25; 2: 0.31; 3: 0.3
